system: TRPC4 beta (transient receptor potential cation channel C4), mouse; experiment: potentiation of DAMGO EC20 TRPC4 response – cell-based, Fluo-4, HEK293 TRPC4beta/mu-opioid, confirmation (AID 2555); conditions: DAMGO EC20, Fluo-4 calcium flux, at 10 µM
Calls of active or inactive are those of the source.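 How the source made its calls: active means primary screen hit whose calcium fluorescence ratio, in both repeats, exceeds the weak agonist control mean by 3 SD; inactive means the rest.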
Give one outcome, nothing more. List: 1 (yes) for active, 0 (no) for inactive

// known answers, use as guide
>  <Chemical Smiles>
COc1ccccc1C(=O)Nc1ccc2c(c1)CCCN2C(=O)c1cccs1

>  <Assigned Label>
0 (no)

$$$$
>  <Chemical Smiles>
Clc1ccc(Cl)c(OCCCCN2CCNCC2)c1

>  <Assigned Label>
1 (yes)

$$$$
>  <Chemical Smiles>
CCN(CC)CC(=O)Nc1ccccc1SCC(=O)Nc1ccsc1C(=O)OC

>  <Assigned Label>
0 (no)

$$$$
>  <Chemical Smiles>
Clc1cccc2c3c([nH]c12)CCNC3

>  <Assigned Label>
1 (yes)

$$$$
>  <Chemical Smiles>
NC(=O)N/N=C1\c2ccccc2-c2c(C(N)=O)cccc21

>  <Assigned Label>
0 (no)

$$$$
>  <Chemical Smiles>
CC(C)Oc1ccc(CCC(=O)NNC(=S)NCc2ccccc2)cc1

>  <Assigned Label>
0 (no)

$$$$

# next compound below
[Q] State the result this test recorded for `CN(C)CCCN(C(=O)c1ccc(S(=O)(=O)N2CCc3ccccc3C2)cc1)c1nc2c(F)cc(F)cc2s1` .
[A] 0 (no)
